Target Under Test: human orexin-2 (hOX2) receptor (Homo sapiens, UniProt O43614)
Construct: expressed in transfected cells
Sequence (O43614 whole entry): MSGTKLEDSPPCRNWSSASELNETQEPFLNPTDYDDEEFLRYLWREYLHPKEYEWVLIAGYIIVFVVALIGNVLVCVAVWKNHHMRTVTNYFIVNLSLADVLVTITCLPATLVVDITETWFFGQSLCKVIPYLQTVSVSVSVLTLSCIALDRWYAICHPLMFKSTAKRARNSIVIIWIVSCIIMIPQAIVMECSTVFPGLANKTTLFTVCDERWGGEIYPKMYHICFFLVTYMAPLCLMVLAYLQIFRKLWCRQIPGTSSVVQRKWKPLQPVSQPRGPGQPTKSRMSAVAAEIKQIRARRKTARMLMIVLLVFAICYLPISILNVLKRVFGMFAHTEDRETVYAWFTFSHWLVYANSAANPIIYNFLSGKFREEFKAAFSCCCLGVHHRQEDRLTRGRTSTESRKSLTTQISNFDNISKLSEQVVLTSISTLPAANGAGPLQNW
Measurement Protocol: Intracellular Ca2+ mobilization assay (FLIPR), CHO(dHFr-) cells expressing hOX2, orexin-A at EC80 as agonist
Assay type: cell-based
Assay Context: Kb=IC50/(1+[A]/EC50); CHO(dHFr-)-OX2R cells, antagonist applied 25 min before orexin-A EC80
Where a name gives a salt, the structure may show the parent alone.
Assay Endpoint: Kb (µM)

These solved cases illustrate the format of a correct answer.
Compound | Assay Endpoint | Test Value
Cc1ccc(N(CCc2cc(F)cc(C(F)(F)F)c2)C(=O)[C@@H](N)c2ccccc2)cc1C [Example 201, hydrochloride] | Kb | 0.247
Cc1cccc(CCN(C(=O)[C@@H](N)c2ccccc2)c2ccc(C)c(C)c2)c1 [Example 181, hydrochloride] | Kb | 0.0708
COc1ccc(N(CCc2ccc(C(F)(F)F)cc2)C(=O)C(N)c2ccc(Cl)cc2)cc1OC (centres unmarked) | Kb | 0.0751

A: Cc1ccc(CCN(C(=O)C(NC[C@@H]2CCCO2)c2ccccc2)c2ccc(C)c(C)c2)cc1 (some centres unmarked)
B: Cc1ccc(CCN(C(=O)C(NCC(C)O)c2ccccc2)c2ccc(C)c(C)c2)cc1 (centres unmarked)
Record comparison, field Kb: mark the lower of A and B . Bench note: the answer is the label of the chosen record. B
(B: 0.0109 µM, A: 0.0161 µM)

A: Cc1cc(N(CCc2ccc(C(F)(F)F)cc2)C(=O)C(N)c2ccccc2)ccc1F (centres unmarked)
B: COc1ccc(N(CCc2ccc(C(F)(F)F)cc2)C(=O)C(N)c2ccccc2)cc1OC (centres unmarked)
C: CCOc1ccc(N(CCc2ccc(C(F)(F)F)cc2)C(=O)[C@@H](N)c2ccccc2)cc1OCC
Descending sort on Kb required. Enter labels, ranked according to the request. A, C, B
(A: 0.0698 µM, C: 0.0127 µM, B: 0.0018 µM)

1: Cc1ccc(N(CCc2ccc(C(F)(F)F)cc2)C(=O)[C@@H](O)c2ccccc2)cc1C
2: CCOC(C(=O)N(CCc1ccc(C(F)(F)F)cc1)c1ccc(C)c(C)c1)c1ccccc1 (racemic)
3: COc1ccc(N(CCc2ccc(C(F)(F)F)cc2)C(=O)[C@@H](NC2COC2)c2ccccc2)cc1OC
Descending sort on Kb required. Enter labels, ranked according to the request. 2, 1, 3
(2: 0.0834 µM, 1: 0.0542 µM, 3: 0.0023 µM)

###

Target Under Test: human orexin-2 (hOX2) receptor (Homo sapiens)
Construct: expressed in transfected cells
Measurement Protocol: Intracellular Ca2+ mobilization assay (FLIPR), CHO(dHFr-) cells expressing hOX2, orexin-A at EC80 as agonist
Assay type: cell-based
Assay Context: Kb=IC50/(1+[A]/EC50); CHO(dHFr-)-OX2R cells, antagonist applied 25 min before orexin-A EC80
Counter-ions that a name gives are not always drawn.
Assay Endpoint: Kb (µM)

These solved cases illustrate the format of a correct answer.
Molecule | Kb [µM]
Cc1ccc(CCN(C(=O)[C@@H](NC(=O)[C@@H](N)c2ccccc2)c2ccccc2)c2ccc(C)c(C)c2)cc1 [Example 249] | 0.082
C=COCCNC(C(=O)N(CCc1ccc(C)cc1)c1ccc(C)c(C)c1)c1ccccc1 (stereo not shown) [Example 135] | 0.0379
CCC(COC)NC(C(=O)N(CCc1ccc(C)cc1)c1ccc(C)c(C)c1)c1ccccc1 (stereo not shown) [Example 125] | 0.0267
Cc1ccc(N(CCc2ccccc2F)C(=O)[C@@H](N)c2ccccc2)cc1C [Example 180, hydrochloride] | 0.036
Cc1ccc(N(CCc2ccc(C(F)(F)F)c(F)c2)C(=O)[C@@H](N)c2ccccc2)cc1C [Example 186, hydrochloride] | 0.0156

I: CCOc1ccc(N(CCc2ccc(C(F)(F)F)cc2)C(=O)C(N)c2ccccc2)cc1OCC (stereo not shown) [Example 68]
II: Cc1ccc(N(CCc2ccc(F)c(C(F)(F)F)c2)C(=O)[C@@H](N)c2ccccc2)cc1C [Example 187, hydrochloride]
Between the two listed entries I and II , which has its Kb at the higher number? Bench note: the answer is the label of the chosen record. II

a: CN[C@H](C(=O)N(CCc1ccc(C(F)(F)F)cc1)c1ccc(OC)c(OC)c1)c1ccccc1OC [Example 101, hydrochloride]
b: Cc1ccc(CCN(C(=O)C(NCCO)c2ccccc2)c2ccc(C)c(C)c2)cc1 (stereo not shown) [Example 106]
c: Cc1ccc(N(CCc2cc(Cl)ccc2Cl)C(=O)[C@@H](N)c2ccccc2)cc1C [Example 203, hydrochloride]
Arrange the 3 molecules by rising Kb, starting with the smallest. Enter labels, ranked according to the request. b, a, c

###

Target Under Test: human orexin-2 (hOX2) receptor (Homo sapiens, UniProt O43614)
Construct: expressed in transfected cells
Measurement Protocol: Intracellular Ca2+ mobilization assay (FLIPR), CHO(dHFr-) cells expressing hOX2, orexin-A at EC80 as agonist
Assay type: cell-based
Assay Context: Kb=IC50/(1+[A]/EC50); CHO(dHFr-)-OX2R cells, antagonist applied 25 min before orexin-A EC80
Where a name gives a salt, the structure may show the parent alone.
Assay Endpoint: Kb (µM)

Compound | Assay Endpoint | Test Value
Cc1ccc(N(CCc2cccc(O)c2)C(=O)[C@@H](N)c2ccccc2)cc1C [Example 206, hydrochloride] | Kb | 0.0469
Cc1ccc(N(CCc2ccc(Cl)cc2Cl)C(=O)[C@@H](N)c2ccccc2)cc1C [Example 205, hydrochloride] | Kb | 0.0829
COc1ccc(N(CCc2ccc(C(F)(F)F)cc2)C(=O)C(N)c2cccc(Cl)c2)cc1OC (stereo not drawn) | Kb | 0.0664

###

Target Under Test: human orexin-2 (hOX2) receptor (Homo sapiens, UniProt O43614)
Construct: expressed in transfected cells
Measurement Protocol: Intracellular Ca2+ mobilization assay (FLIPR), CHO(dHFr-) cells expressing hOX2, orexin-A at EC80 as agonist
Assay type: cell-based
Assay Context: Kb=IC50/(1+[A]/EC50); CHO(dHFr-)-OX2R cells, antagonist applied 25 min before orexin-A EC80
Structures can show the parent of a compound that is named as a salt.
Assay Endpoint: Kb (µM)

Molecule | Scale Unit | Kb
Cc1cccc(N(CCc2ccc(C(F)(F)F)cc2)C(=O)C(N)c2ccccc2)c1 (stereo not drawn) | µM | 0.0579
Cc1ccc(N(CCc2ccc(C(F)(F)F)c(F)c2F)C(=O)[C@@H](N)c2ccccc2)cc1C [Example 197, hydrochloride] | µM | 0.0067
CCOc1ccc(N(CCc2ccc(C(F)(F)F)cc2)C(=O)[C@@H](N)c2ccc(F)cc2)cc1Cl | µM | 0.0673

a: COc1cccc(N(CCc2ccc(C(F)(F)F)cc2)C(=O)[C@@H](N)c2ccccc2)c1
b: Cc1ccc(N(CCc2ccccc2)C(=O)[C@@H](N)c2ccccc2)cc1C [Example 199, hydrochloride]
Between the two listed entries a and b , which has its Kb at the higher number? Bench note: the answer is the label of the chosen record. b

I: COc1ccc(N(CCc2ccc(C(F)(F)F)cc2)C(=O)C(N)c2ccccc2OC)cc1Cl (stereo not drawn)
II: N[C@H](C(=O)N(CCc1ccc(F)cc1)c1ccc2c(c1)CCO2)c1ccccc1 [Example 239, hydrochloride]
III: COc1ccc(N(CCc2ccc(C(F)(F)F)cc2)C(=O)C(N)c2ccccc2)cc1 (stereo not drawn)
IV: Cc1ccc(N(CCc2ccc(Cl)cc2)C(=O)C(N)c2ccccc2)cc1C (stereo not drawn)
Descending sort on Kb required. Enter labels, ranked according to the request. IV, III, II, I
(IV: 0.0888 µM, III: 0.0523 µM, II: 0.025 µM, I: 0.0162 µM)

a: Cc1ccc(N(CCc2ccc(C#N)cc2)C(=O)[C@@H](N)c2ccccc2)cc1C [Example 212, hydrochloride]
b: COc1ccc(C)c(N(CCc2ccc(C(F)(F)F)cc2)C(=O)C(N)c2ccccc2)c1 (stereo not drawn)
Between the two listed entries a and b , which has its Kb at the higher number? Bench note: the answer is the label of the chosen record. a
(a: 0.0343 µM, b: 0.0143 µM)

A: COc1ccc(N(CCc2ccc(C(F)(F)F)cc2)C(=O)C(O)c2ccccc2F)cc1OC (stereo not drawn)
B: Cc1ccc(CCN(C(=O)C(N)c2ccccc2)c2ccc(F)c(C)c2)cc1 (stereo not drawn)
Record comparison, field Kb: mark the lower of A and B . Bench note: the answer is the label of the chosen record. A
(A: 0.0336 µM, B: 0.0819 µM)

###

Target Under Test: human orexin-2 (hOX2) receptor (Homo sapiens, UniProt O43614)
Construct: expressed in transfected cells
Measurement Protocol: Intracellular Ca2+ mobilization assay (FLIPR), CHO(dHFr-) cells expressing hOX2, orexin-A at EC80 as agonist
Format: cell-based
Assay Context: Kb=IC50/(1+[A]/EC50); CHO(dHFr-)-OX2R cells, antagonist applied 25 min before orexin-A EC80
Structures can show the parent of a compound that is named as a salt.
Assay Endpoint: Kb (µM)

These solved cases illustrate the format of a correct answer.
Compound | Test Value
COc1ccc(N(CCc2ccc(C(F)(F)F)cc2)C(=O)C(O)c2ccc(Cl)cc2)cc1OC (centres unmarked) | 0.0757
COc1ccc(N(CCc2ccc(C(F)(F)F)cc2)C(=O)C(N)c2ccccc2OC)cc1F (centres unmarked) | 0.0559
COc1ccc(N(CCc2ccc(C(F)(F)F)cc2)C(=O)C(O)c2ccccc2OC)cc1OC (centres unmarked) | 0.0165
Cc1ccc(N(CCc2ccc(F)cc2F)C(=O)[C@@H](N)c2ccccc2)cc1C [Example 188, hydrochloride] | 0.0269

P: Cc1ccc(N(CCc2cc(F)cc(F)c2)C(=O)[C@@H](N)c2ccccc2)cc1C [Example 208, hydrochloride]
Q: Cc1ccc(N(CCc2ccc(C(F)(F)F)cc2)C(=O)C(N)c2ccccc2)cc1C (centres unmarked)
Between the two listed entries P and Q , which has its Kb at the higher number? Bench note: the answer is the label of the chosen record. Q
